tested-system: T1, Recombinant soluble extracellular domain of human MerTK (human, UniProt Q12866 21-505)
T1 construct: SPR analyte; also called hMerTK
T1 sequence: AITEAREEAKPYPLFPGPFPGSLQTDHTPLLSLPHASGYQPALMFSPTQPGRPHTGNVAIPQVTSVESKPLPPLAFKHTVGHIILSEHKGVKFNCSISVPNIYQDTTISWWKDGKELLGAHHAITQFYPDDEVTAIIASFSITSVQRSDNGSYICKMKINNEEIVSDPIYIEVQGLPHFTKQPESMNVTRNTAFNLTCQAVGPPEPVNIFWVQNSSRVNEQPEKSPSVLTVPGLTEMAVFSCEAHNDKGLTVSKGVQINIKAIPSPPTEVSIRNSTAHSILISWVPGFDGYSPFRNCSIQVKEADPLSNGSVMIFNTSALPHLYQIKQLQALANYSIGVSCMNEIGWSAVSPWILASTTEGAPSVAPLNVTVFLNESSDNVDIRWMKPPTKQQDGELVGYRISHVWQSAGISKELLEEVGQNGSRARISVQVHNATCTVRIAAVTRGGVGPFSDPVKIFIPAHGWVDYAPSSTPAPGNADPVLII
experiment-notes: SPR, mAb captured, soluble MerTK ECD as analyte, 37 C
// reported t1/2 per item

binder	t1/2 [min]
Humanized MAb 2L105 (antibody, human IgG1, lambda, V domains shown, Humanized variant of moMAb 2D9, Bin 2) VH: QVTLKESGPVLVKPTETLTLTCTVSGISLSSFAISWIRQPPGKALEWLAVIWTGGGTDYNSALKSRLTISKDTSKSQVVLTMTNMDPVDTATYYCASHWYLDVWGQGTTVTVSS VL: QTVVTQEPSFSVSPGGTVTLTCRSSTGAVSTSNYANWVQQTPGQAPRGLIGGANSRAPGIPDRFSGSILGNKAALTITGAQADDESDYYCALWFSNHWVFGGGTKLTVLG	7.9
HuMAb 22I16 (antibody, human IgG1, kappa, V domains shown, Human anti-hMerTK mAb, Bin 1; also called 22116) VH: EVQLVESGGGLVQPGGSLRLSCAASGFTFSSYSMNWVRQAPGKGLEWVSYIISGSDTIFYADSVKGRFTISRDNAKNSLYLQMNSLRDEDTAVYYCARDETVVRGVINYFDYWGQGTLVTVSS VL: AIQLTQSPSSLSASVGDRVTITCRSSQGISSALAWYQQKPGKAPKLLIYDASSLESGVPSRFSGSGSGTDFTLTISSLQPEDFATYYCQQFISYPTFGQGTRLEIKR	14.9
HuMAb 25J80 (antibody, human IgG1, kappa, V domains shown, Human anti-hMerTK mAb, Bin 2, derived from HuMAb 25B10 by optimization) VH: QVQLVQSGAEVKKPGASVKVSCKTSGRTFIRYYMHWVRQAPGQGLEWMGIIWPNGDQTTYAQKFQGRVTMTRDTSTSTVYMELSSLRSEDTAVYYCATTYKYAMDVWGQGTTVTVSS VL: EIVLTQSPGTLSLSPGERATLSCRASQSVRSNYLAWYQQKPGQAPRLLIYGASSRATGIPDRFSGSGSGTDFTLTISRLEPEDFAVYYCQQYESPPRTFGQGTKVEIKR	9.6
HuMAb 8N42 (antibody, V domains shown, Human anti-hMerTK mAb, Bin 1) VH: QVQLQQWGAGLLKPSETLSLTCAVYGGSFSIYYWSWIRQPPGKGLELIGEINDEGNTNYNPSLKSRVTISVDTSKNQFSLKLSSVTAADTAVYYCARGGTGDIHAFDIWGQGTMVTVSS VL: DIQMTQSPSSLSASVGDRVTITCRASQGISKWLAWYQQKPEKAPKSLIYAASSLQSGVPSRFSGSGSGTDFTLTISSLQPEDFATYYCQQYNSYPWTFGQGTKVEIKR	6.9
HuMAb 4K10 (antibody, human IgG1, kappa, V domains shown, Human anti-hMerTK mAb, Bin 3) VH: QVQLQQWGAGLLKPSETLSLTCAVYGGSFSGYYWSWLRQPPGKGLEWIGEISHSGSTNYNPSLKSRVTISVDTSKNQFSLKLSSVTAADTAVYYCARALSRYWYFDLWGRGTLVTVSS VL: EIVLTQSPATLSLSPGERATLSCRASQSASNYLAWYQQKPGQAPRLLIYDASNRATGIPARFSGSGSGTDFTLTISSLEPEDFAVYYCYQRSQWPISFGQGTRLEIKR	3.4

Numbers sourced from patent US20210395392A1.
